Source: ChEMBL document CHEMBL1139455

- TGT: Monoclonal antibody (mAb) 2E2
- ASSAY PROCEDURE: Binding affinity towards human monoclonal antibody 2E2 using [3H]cocaine
READOUT NAME: pKi
Give bare numbers, as −log10 of the molar value.

// pKi lookup, key: COC(=O)[C@H]1[C@@H](OC(=O)c2ccccc2)C[C@@H]2CC[C@H]1N2C [COCAINE]
8.46

###

- TGT: Monoclonal antibody (mAb) 2E2
- ASSAY PROCEDURE: Dissociation Constant for human monoclonal antibody 2E2 with [3H]cocaine
READOUT NAME: pKd
Answers are plain numbers, as −log10 of the molar value.

// pKd lookup, key: COC(=O)[C@H]1[C@@H](OC(=O)c2ccccc2)C[C@@H]2CC[C@H]1N2C [COCAINE]
8.36
